# Test system: NCI-H522
# PROTOCOL_DESCRIPTION: NCI tumour cell line growth inhibition, 48 h
Active and inactive are the calls of the source. Cut-off read from the data, not from the text of the source: active = GI50 up to about 1.1 µM and inactive = higher.
Write down the outcome that applies. Available outcomes: yes = active, no = inactive

{"columns": ["MOLECULE", "TARGET_SYSTEM", "GROUP"],
 "data": [
  ["CC1=C(C(=O)Nc2ccc(C)cc2)C(c2cccc([N+](=O)[O-])c2)C(C(=O)Nc2ccc(C)cc2)=C(C)N1", "NCI-H522", "no"],
  ["COc1cc(C(c2ccc3c(c2)OCO3)C2SCCCS2)cc(OC)c1OC (stereo unspecified)", "NCI-H522", "no"],
  ["CCSc1nc2sc(C)c(C)c2c(=O)n1-c1ccc(C(=O)O)cc1", "NCI-H522", "no"],
  ["Cc1cc(C)c(C(=O)O)c(N)c1O", "NCI-H522", "no"],
  ["O=C1NC(=S)NC(=O)C1C(c1ccc(O)cc1)C1C(=O)NC(=S)NC1=O.c1ccncc1", "NCI-H522", "no"]
]}

QUERY: For COC(=O)c1cc(O)c(O)c(O)c1-c1c(O)c(O)c(O)c(SC[C@H](NC(=O)OCc2ccccc2)C(=O)OCc2ccccc2)c1C(=O)OC , which call appears in the assay record?
RESULT: no

QUERY: What classification did COn1cc(C=O)c2ccccc21 end up with in this test?
RESULT: no

QUERY: Recorded call for CCOc1ccc2nc(NC(=O)C(=O)C(c3cnc4ccccc4n3)[N+](=O)[O-])sc2c1 (stereo unspecified) ?
RESULT: no

QUERY: What is the recorded call for this molecule in the test? Fc1ccccc1-c1cc(S)c2cc3c(cc2n1)OCO3
RESULT: no

QUERY: Test call for this molecule, please: Cc1cc(S(=O)(=O)Nc2cc(N)n[nH]2)c(SCc2nc(N)nc(N(C)C)n2)cc1Cl
RESULT: no
